MEASURED_ON: Protein kinase C beta type (Homo sapiens, UniProt P05771)
Sequence (P05771 whole entry): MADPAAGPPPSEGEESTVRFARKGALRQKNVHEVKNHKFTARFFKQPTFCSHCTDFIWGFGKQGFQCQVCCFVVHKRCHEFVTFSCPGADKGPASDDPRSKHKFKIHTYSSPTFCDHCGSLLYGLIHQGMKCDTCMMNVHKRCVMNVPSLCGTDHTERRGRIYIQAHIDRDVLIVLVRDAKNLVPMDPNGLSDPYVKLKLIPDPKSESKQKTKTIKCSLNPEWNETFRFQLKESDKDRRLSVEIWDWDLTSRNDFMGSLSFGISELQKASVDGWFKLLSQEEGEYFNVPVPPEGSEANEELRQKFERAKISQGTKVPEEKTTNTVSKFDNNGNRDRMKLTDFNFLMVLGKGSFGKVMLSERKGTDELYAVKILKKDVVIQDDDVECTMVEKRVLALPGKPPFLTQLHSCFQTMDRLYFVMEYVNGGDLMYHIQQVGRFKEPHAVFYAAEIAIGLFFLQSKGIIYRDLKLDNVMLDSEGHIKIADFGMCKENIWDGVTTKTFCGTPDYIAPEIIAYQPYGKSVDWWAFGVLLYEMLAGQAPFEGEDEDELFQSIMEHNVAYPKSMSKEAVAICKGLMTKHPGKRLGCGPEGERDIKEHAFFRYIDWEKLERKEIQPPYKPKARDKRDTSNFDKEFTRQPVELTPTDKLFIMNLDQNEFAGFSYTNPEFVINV
PROPERTY_LABEL: Kd (nM)
Express the result in nM but write the number alone.

Task item: What value of Kd on Protein kinase C beta type (Homo sapiens, UniProt P05771) does `CC(C)[C@H]1C(=O)N[C@H](CO)Cc2cc(NC(=O)CCCCCCCCCCCCC(=O)Nc3ccc4c(c3)N(C)[C@@H](C(C)C)C(=O)N[C@H](CO)C4)ccc2N1C` have?
Reply: 0.19

====

MEASURED_ON: Protein kinase C delta type (Homo sapiens, UniProt Q05655)
Sequence (Q05655 whole entry): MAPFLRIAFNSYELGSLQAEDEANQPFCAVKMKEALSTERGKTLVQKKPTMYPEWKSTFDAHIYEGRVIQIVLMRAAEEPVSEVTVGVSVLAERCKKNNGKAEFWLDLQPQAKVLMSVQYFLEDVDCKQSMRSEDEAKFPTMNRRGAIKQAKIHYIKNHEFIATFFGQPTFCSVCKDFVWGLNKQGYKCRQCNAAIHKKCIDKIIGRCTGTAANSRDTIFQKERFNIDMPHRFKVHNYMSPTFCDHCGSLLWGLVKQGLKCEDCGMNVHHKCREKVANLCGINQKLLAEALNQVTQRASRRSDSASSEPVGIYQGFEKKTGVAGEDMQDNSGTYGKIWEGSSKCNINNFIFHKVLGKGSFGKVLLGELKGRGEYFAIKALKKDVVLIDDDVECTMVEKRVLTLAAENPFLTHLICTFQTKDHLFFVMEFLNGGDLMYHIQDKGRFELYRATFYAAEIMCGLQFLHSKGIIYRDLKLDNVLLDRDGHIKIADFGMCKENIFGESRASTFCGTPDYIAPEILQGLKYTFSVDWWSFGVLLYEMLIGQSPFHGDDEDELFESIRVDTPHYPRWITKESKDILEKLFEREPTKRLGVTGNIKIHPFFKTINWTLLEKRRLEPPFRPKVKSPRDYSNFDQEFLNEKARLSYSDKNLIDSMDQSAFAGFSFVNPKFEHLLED
TEST_DETAILS: Inhibition of human Protein kinase C delta
PROPERTY_LABEL: Ki (nM)
Express the result in nM but write the number alone.

Task item: I have this compound here, `CC(C)[C@H]1C(=O)N[C@H](CO)Cc2cc(NC(=O)CCCCCCCCCCCCC(=O)Nc3ccc4c(c3)N(C)[C@@H](C(C)C)C(=O)N[C@H](CO)C4)ccc2N1C` , and I need its recorded Ki.
Reply: 2.12

These entries and their values trace back to ChEMBL document CHEMBL1145095.
